assay: Human HepG2 cell viability assay in 384 well format; type: toxicity, cell-based; design: dose 125 nL, time 70.5 hour; concentration not given beside the values; details: HepG2 cells, read-out: Inhibition
property.label: cytotoxicity at 70.5 h (%)
# unit: % | format: bare number

The examples below pair each entry with its known result.
1. COc1cccc(-c2n[nH]c3c2CN(C(=O)c2oc(C)cc2C)CC3)c1    -0.91
2. Cc1cc(CN(C)C(=O)c2ccc(C(F)(F)F)nc2)no1    -19.6

# cytotoxicity at 70.5 h of O=C(CCc1cccc(Cl)c1Cl)N1CCOCC1c1ncon1 (centres undefined) = -1.88

Lab note: measured cytotoxicity at 70.5 h of CC(NCC1(N(C)C)CCOCC1)c1ccc(SC(F)F)cc1 (centres undefined) was 2.6

---

test: Human HepG2 cell viability assay in 384 well format; format: toxicity, cell-based; parameters: dose 125 nL, time 70.5 hour; concentration not given beside the values; conditions: HepG2 cells, read-out: Inhibition
property.label: cytotoxicity at 70.5 h (%)
Dear colleague, please return just the value in %, with no unit written.

1. Cc1oc(-c2ccco2)nc1CC(=O)NCC(C)(C)N(C)C    -8.24
2. CCc1nc(CN(C)c2nccc(N3CCCC(O)C3)n2)no1 (stereo not drawn)    -0.51

--- query ---
Recorded result, `Cc1cc(S(=O)(=O)NC(=O)CCc2cncc(F)c2)c(C)s1` , cytotoxicity at 70.5 h: -1.54

---

assay: Human HepG2 cell viability assay in 384 well format; format: toxicity, cell-based; parameters: dose 125 nL, time 70.5 hour; concentration not given beside the values; conditions: HepG2 cells, read-out: Inhibition
property.label: cytotoxicity at 70.5 h (%)
Form entry: value (%) — number only.

Below: 4 compounds and their reported cytotoxicity at 70.5 h.
1) O=C(Cc1cn2ccsc2n1)N1CCCC(n2cncn2)C1 (stereo not given)    0.86
2) O=C([C@H]1CN(Cc2cccnc2)C[C@H]2OCC[C@@H]12)N1CCCO1    -6.93
3) O=C(NCC1CC1)C1CN(C(=O)c2cnccn2)CC12CCOCC2 (stereo not given)    -2.91
4) CCN1CC2(CCN(C(=O)C3CSC(C)(C)C(=O)N3)CC2)CC1=O (stereo not given)    -6.11

Lab note: next compound to report on.
Value of cytotoxicity at 70.5 h reported for the compound `CC(C)N(Cc1c[nH]nc1-c1ccc2c(c1)OCO2)Cc1nccn1C` is -4.64

---

test: Human HepG2 cell viability assay in 384 well format; type: toxicity, cell-based; set-up: dose 125 nL, time 70.5 hour; concentration not given beside the values; settings: HepG2 cells, read-out: Inhibition
property.label: cytotoxicity at 70.5 h (%)
Respond numerically; units are % and should not be typed.

The cases that follow already have their cytotoxicity at 70.5 h on record.
1) COc1ccc(C(=O)NC2CC2)c(OC)c1    -11.5
2) Cc1cccc(-c2nc(CNC3CCc4ncnn4C3)no2)c1 (stereo not given)    -4.91

Field cytotoxicity at 70.5 h (entry `CS(=O)(=O)CCOCCNc1ccc(Br)cn1` ) reads -3.34

get_value(item= `COC(=O)N1CCN(Cc2ccccc2Cl)CC1` , readout=cytotoxicity at 70.5 h) returns -1.89

Entry CC(C)CN1CC(c2nc(-c3ccc(F)cc3)c[nH]2)CC1=O (stereo not given) ; cytotoxicity at 70.5 h = -7.74
